- System: SOFesc virus (ED43 sofosbuvir escape virus)
- PROTOCOL NOTES: microbe, parasite or virus in culture
- Format: cell-based
- CONDITIONS: Hepatitis C virus, Huh7.5 cells, 48 hours treatment, read-out: EC50 (nM [95% CI])
READOUT LABEL: EC50 (nM)
Could you give me the number in nM? Just the number is fine.

Challenge: // query EC50 value for entry CC(C)OC(=O)[C@H](C)N[P@](=O)(OC[C@H]1O[C@@H](n2ccc(=O)[nH]c2=O)[C@](C)(F)[C@@H]1O)Oc1ccccc1 [sofosbuvir]
Response given: 2250
